Form field: viability, T/C (one value per entry).
System: 953936-095-R-J2-PDC spheroids with HUVEC/MSC, viability;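 further: spheroids exposed to compounds for seven days before read-out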
ASSAY_OVERVIEW: Anticancer human tumor 953936-095-R-J2-PDC patient-derived cervical squamous cell carcinoma cell line growth inhibition [PI3K]
TEST_CONDITIONS: second compound 0.1 µM; first compound 0.1 µM; hits give low values
Report the value in % with no unit label.

Completed entries (count: 5):
CNC(=O)c1ccc(N2C(=S)N(c3ccc(C#N)c(C(F)(F)F)c3)C(=O)C2(C)C)cc1F + CC(Nc1ccc2c(c1)OCCn1cc(N3C(=O)OCC3C(F)F)nc1-2)C(N)=O: 55.5
CC(=O)c1c(C)c2cnc(Nc3ccc(N4CCNCC4)cn3)nc2n(C2CCCC2)c1=O + CC(Nc1ncnc2nc[nH]c12)c1cc2cccc(Cl)c2c(=O)n1-c1ccccc1: 92.1
Cn1nccc1Nc1nccc(-c2ccn(C(CO)c3ccc(Cl)c(F)c3)c(=O)c2)n1 (stereo unspecified) + CC(Nc1ncnc2nc[nH]c12)c1cc2cccc(Cl)c2c(=O)n1-c1ccccc1: 90.6
Cn1nccc1Nc1nccc(-c2ccn(C(CO)c3ccc(Cl)c(F)c3)c(=O)c2)n1 (stereo unspecified) + Cc1nc(NC(=O)N2CCCC2C(N)=O)sc1-c1ccnc(C(C)(C)C(F)(F)F)c1: 76.3
CC(=O)c1c(C)c2cnc(Nc3ccc(N4CCNCC4)cn3)nc2n(C2CCCC2)c1=O + CC(Nc1ccc2c(c1)OCCn1cc(N3C(=O)OCC3C(F)F)nc1-2)C(N)=O: 54.5

Fill in the recorded viability, T/C for this compound, with 953936-095-R-J2-PDC spheroids with HUVEC/MSC, viability as test system: CNC(=O)c1ccc(N2C(=S)N(c3ccc(C#N)c(C(F)(F)F)c3)C(=O)C2(C)C)cc1F + CC(Nc1ncnc2nc[nH]c12)c1cc2cccc(Cl)c2c(=O)n1-c1ccccc1
104

So what viability, T/C did Cn1ncc(Cl)c1-c1cc(C(=O)NC(CN)Cc2cccc(F)c2)sc1Cl (stereo unspecified) + CC(Nc1ccc2c(c1)OCCn1cc(N3C(=O)OCC3C(F)F)nc1-2)C(N)=O get with 953936-095-R-J2-PDC spheroids with HUVEC/MSC, viability?
61.7

Under 953936-095-R-J2-PDC spheroids with HUVEC/MSC, viability: viability, T/C value of CCCS(=O)(=O)Nc1ccc(F)c(C(=O)c2c[nH]c3ncc(-c4ccc(Cl)cc4)cc23)c1F + CC(Nc1ncnc2nc[nH]c12)c1cc2cccc(Cl)c2c(=O)n1-c1ccccc1 ?
101
